# TESTED TARGET: human TLR7 (hTLR7) (Homo sapiens (Human), UniProt Q9NYK1)
# Sequence (Q9NYK1 27-1049): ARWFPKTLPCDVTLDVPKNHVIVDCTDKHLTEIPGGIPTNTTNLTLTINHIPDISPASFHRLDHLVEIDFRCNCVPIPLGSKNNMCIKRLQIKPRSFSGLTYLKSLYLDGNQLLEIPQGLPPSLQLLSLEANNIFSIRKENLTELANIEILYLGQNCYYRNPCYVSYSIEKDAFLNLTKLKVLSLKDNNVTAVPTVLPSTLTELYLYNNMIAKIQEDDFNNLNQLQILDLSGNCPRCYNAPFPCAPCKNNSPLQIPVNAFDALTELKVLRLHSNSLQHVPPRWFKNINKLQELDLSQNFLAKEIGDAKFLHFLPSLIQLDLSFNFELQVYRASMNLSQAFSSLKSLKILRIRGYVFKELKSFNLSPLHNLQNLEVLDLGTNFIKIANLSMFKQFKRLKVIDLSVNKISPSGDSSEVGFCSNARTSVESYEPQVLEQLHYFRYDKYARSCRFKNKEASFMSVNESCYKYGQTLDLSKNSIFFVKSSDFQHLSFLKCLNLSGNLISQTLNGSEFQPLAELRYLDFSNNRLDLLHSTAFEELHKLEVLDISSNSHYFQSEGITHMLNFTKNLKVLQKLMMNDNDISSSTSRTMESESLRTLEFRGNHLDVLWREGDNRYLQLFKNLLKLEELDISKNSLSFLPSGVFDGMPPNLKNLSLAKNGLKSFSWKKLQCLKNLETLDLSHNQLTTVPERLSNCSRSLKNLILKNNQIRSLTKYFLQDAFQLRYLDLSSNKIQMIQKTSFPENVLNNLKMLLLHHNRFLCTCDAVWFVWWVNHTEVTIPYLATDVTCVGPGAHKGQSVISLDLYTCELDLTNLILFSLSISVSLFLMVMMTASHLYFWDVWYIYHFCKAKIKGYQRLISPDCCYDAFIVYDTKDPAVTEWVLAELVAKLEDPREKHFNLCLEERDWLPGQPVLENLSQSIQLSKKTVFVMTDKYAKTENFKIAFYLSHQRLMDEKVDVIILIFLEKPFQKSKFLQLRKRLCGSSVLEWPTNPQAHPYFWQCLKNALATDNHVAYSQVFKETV
# PROCEDURE SUMMARY: HEK TLR7 assay (HEK-Blue hTLR7 cells, NF-kB/AP-1 SEAP reporter)
# CONDITION LABEL: HEK-Blue hTLR7 cells, 16 h incubation, SEAP read at 620-655 nm
Measured EC50, listed per entry for reference.

Answered cases to consult:
SMILES INPUT | REPORTED METRIC | RESULT
CCCCNc1nc(N)nc(C)c1Sc1cc(Cc2nn[nH]n2)ccc1OC | EC50 | 1000 to 10000 nM
CCCCNc1nc(N)nc(C)c1Cc1cc(B(O)O)ccc1OC | EC50 | < 100 nM

Given the entry `CCCCNc1nc(N)nc(C)c1Cc1cc(Cc2nnnn2CC(=O)O)ccc1OC` , report its measured EC50.
1000 to 10000 nM

Moving on to `CCCCCNc1nc(N)nc(C)c1Cc1cc(Cc2nn[nH]n2)ccc1OC`
100 to 1000 nM

Moving on to `CCCCNc1nc(N)nc(C)c1Cc1cc(C(C)(C)C(=O)O)ccc1OC`
100 to 1000 nM

---

# TESTED TARGET: human TLR7 (hTLR7) (Homo sapiens (Human))
# PROCEDURE SUMMARY: HEK TLR7 assay (HEK-Blue hTLR7 cells, NF-kB/AP-1 SEAP reporter)
# CONDITION LABEL: HEK-Blue hTLR7 cells, 16 h incubation, SEAP read at 620-655 nm
REPORTED METRIC: EC50

Answered cases to consult:
COMPOUND | EC50
CCCCNc1nc(N)nc(C)c1Cc1cc(C(C)(C)c2nn[nH]n2)ccc1OC | 100 to 1000 nM
CCCC[C@@H](CCSC)Nc1nc(N)nc(C)c1Cc1cc(-c2nn[nH]n2)ccc1OC | < 100 nM
CCCCNc1nc(N)nc(C)c1Cc1cc(C(=O)NCCS(=O)(=O)O)ccc1OC | 100 to 1000 nM
CCCCNc1nc(N)nc(CCc2nn[nH]n2)c1Cc1ccccc1OC | 100 to 1000 nM
CCCC[C@@H](CCOC)Nc1nc(N)nc(CCC(=O)O)c1Cc1cc(Cc2nn[nH]n2)ccc1OC | 100 to 1000 nM

Given the entry CCCC(C)Nc1nc(N)nc(C)c1Cc1cc(Cc2nn[nH]n2)ccc1OC (centres unmarked) , report its measured EC50.
100 to 1000 nM

Moving on to `CCCCNc1nc(N)nc(C)c1Cc1cc(CCC(=O)O)ccc1OC`
1000 to 10000 nM

Moving on to `CCCC[C@@H](CC(=O)O)Nc1nc(N)nc(CCC(=O)O)c1Cc1cc(C(C)(C)C(=O)O)ccc1OC`
1000 to 10000 nM

Moving on to `CCCC[C@@H](CC(=O)O)Nc1nc(N)nc(C)c1Cc1cc(C(=O)NCCCP(=O)(O)O)ccc1OC`
100 to 1000 nM

Moving on to `CCCC[C@@H](CC(=O)O)Nc1nc(N)nc(CCC(=O)O)c1Cc1ccccc1OC`
100 to 1000 nM

Moving on to `CCCC[C@@H](CCO)Nc1nc(N)nc(CCC(=O)O)c1Cc1ccccc1OC`
100 to 1000 nM

Moving on to `CCCC[C@@H](CC(=O)O)Nc1nc(N)nc(C)c1Cc1cc(C(C)(C)C(=O)O)ccc1OC`
100 to 1000 nM

Moving on to `CCCC[C@@H](CC(=O)O)Nc1nc(N)nc(C)c1Cc1cc(Cc2nn[nH]n2)ccc1OC`
100 to 1000 nM

Moving on to `CCCC[C@@H](CCSC)Nc1nc(N)nc(CCC(=O)O)c1Cc1ccccc1OC`
< 100 nM

Moving on to `CCCC[C@@H](CCO)Nc1nc(N)nc(CCC(=O)O)c1OC`
1000 to 10000 nM

Moving on to `CCCCNc1nc(N)nc(C)c1Cc1cc(C(=O)NCCCc2nn[nH]n2)ccc1OC`
1000 to 10000 nM

Moving on to `CCCCNc1nc(N)nc(C)c1Cc1ccc(Cc2nn[nH]n2)cc1OC`
1000 to 10000 nM
